As shown below, each of these compounds has a reported inhibition value.
Target: UniProt:Q969S2
Sequence (Q969S2 whole entry): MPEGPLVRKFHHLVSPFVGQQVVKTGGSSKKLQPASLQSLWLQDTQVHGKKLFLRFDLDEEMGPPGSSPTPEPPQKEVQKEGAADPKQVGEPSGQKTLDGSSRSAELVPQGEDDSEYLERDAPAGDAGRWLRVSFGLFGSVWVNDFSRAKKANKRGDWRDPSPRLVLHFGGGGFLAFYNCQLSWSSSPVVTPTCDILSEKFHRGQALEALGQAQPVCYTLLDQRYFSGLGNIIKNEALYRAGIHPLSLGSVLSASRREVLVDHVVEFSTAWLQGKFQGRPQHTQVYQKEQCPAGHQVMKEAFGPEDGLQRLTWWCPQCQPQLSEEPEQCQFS
Settings: Compound Concentration 10.0 uM, Hit No
State just the number; it will be interpreted in %.

Record excerpt, results attached:
{"columns": ["given smiles", "inhibition / %"],
 "data": [
  ["O=c1ccn([C@@H]2O[C@H](COP(=O)(O)OP(=O)(O)OP(=O)(O)OP(=O)(O)OC[C@H]3O[C@@H](n4ccc(=O)[nH]c4=O)[C@H](O)[C@@H]3O)[C@@H](O)[C@H]2O)c(=O)[nH]1", -3.48],
  ["COc1cc2nc(N3CCN(C(=O)c4ccco4)CC3)nc(N)c2cc1OC", 10],
  ["O=S(=O)(Nc1ccc(C(O)(C(F)(F)F)C(F)(F)F)cc1)c1cccs1", -2.02]
]}

Find the recorded inhibition belonging to `CN1CCN(c2ccnc(NCCc3ccccc3)n2)CC1` and report it.
14.1

What inhibition value was documented for this compound, `N#Cc1ccc(NC(=O)Nc2ccccc2Br)c2nn[nH]c12` ?
1.51

What does the record list as inhibition for `C[C@H]1[C@H]2CC[C@H]3[C@@H]4CC=C5C[C@@H](N(C)C)CC[C@]5(C)[C@H]4CC[C@]23CN1C` ?
-7.72

Need inhibition of `O=C(NNS(=O)(=O)c1ccccc1)c1cc(-c2ccnnc2)ccc1F` , thanks.
5.38

Quick one: inhibition for `CN(c1ncccc1CNc1ccnc(-c2cc3cc(Cl)ccc3[nH]2)n1)S(C)(=O)=O` ?
1.85

Quick one: inhibition of `c1ccc2nc(N3CCNCC3)ccc2c1` ?
7.8

----------
Target: N-glycosylase/DNA lyase (Homo sapiens);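 further: OGG1 cleavage of a quenched duplex DNA oligonucleotide, coupled to APE1 for strand incision, read as fluorescence at 594 nm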
Conditions: Compound Concentration 10.0 uM, Hit No
observed property: inhibition (%)
Your answer is read as %, so omit the unit and give the number.

Solved cases (3 shown):
{"columns": ["compound", "system under test", "inhibition [%]"],
 "data": [
  ["O=S(=O)(c1ccccc1)N(CC(F)(F)F)c1ccc(C(O)(C(F)(F)F)C(F)(F)F)cc1", "N-glycosylase/DNA lyase (Homo sapiens)", 22.5],
  ["O=C(O)CCC/C=C\\CC1C(O)CC(O)C1/C=C/C(O)COc1cccc(Cl)c1 (centres undefined)", "N-glycosylase/DNA lyase (Homo sapiens)", -6.16],
  ["Cc1nn(C)c(C)c1-c1cccc2c1CC[C@H](N(C)C)C2", "N-glycosylase/DNA lyase (Homo sapiens)", -7.75]
]}

For the compound shown here, `Cn1c(C2(NC(=O)c3ccc(NCC4CCCCC4)nc3)CCC2)nc2ccc(/C=C/C(=O)O)cc21` , give the reported inhibition.
15

// inhibition lookup, key: `Cc1c(C(=O)NN2CCCCC2)nn(-c2ccc(Cl)cc2Cl)c1-c1ccc(Cl)cc1`
9

What does the data say about its inhibition? Entry: `Cc1c(CC(=O)O)c2cccnc2n1Cc1ccc(S(C)(=O)=O)cc1C(F)(F)F`
-4.75

Sample `C[C@H](c1ccc(F)cc1)N(Cc1ccc(Cl)c(C(=O)O)c1)C(=O)c1cnc2ccccc2c1` — what was its inhibition?
8.39

# query: inhibition of entry `Cc1ccc(-c2cnc([C@@]3(O)CC[C@H](C(=O)O)C(C)(C)C3)s2)cc1Nc1cccc(C(F)(F)F)n1`
5.44

Dear colleague, I am looking for the recorded inhibition of the following compound: `COc1ccccc1/C=N/NC(=O)COc1ccc(Cl)cc1C`
2.66

# lookup: inhibition of `COC[C@H](O)Cn1c(=O)cnn(-c2ccc(Cl)c(C(=O)NCC3(O)CCCCCC3)c2)c1=O`
-7.67

Find the recorded inhibition belonging to `CCS(=O)(=O)c1cc2cc(C[C@](O)(CC(C)(C)c3ccc(F)cc3C(N)=O)C(F)(F)F)[nH]c2cn1` and report it.
-0.262

Please look up its inhibition: `CCCCC/C=C\C/C=C\C/C=C\C/C=C\CCCC(=O)OC(CO)CO`
1.41

Need inhibition, item CC(C)(C)OC(=O)N1CCCC1CNC1CCC(c2cc(F)ccc2F)(S(=O)(=O)c2ccc(Cl)cc2)CC1 (centres undefined)
4.85

I'd like to know its inhibition. The compound in question is `N[C@@H](Cn1cc(F)c(=O)[nH]c1=O)C(=O)O`
-9.73

Field request: inhibition | item: `Nc1nc(NCc2ccccc2)nc(-c2cccc(CO)c2)n1`
-2.67

Field request: inhibition | item: `Cc1cc([C@@H](C)Nc2cccc(-c3cc(C)c(C(=O)N[C@@H](C)C(=O)O)c(C)c3)c2)ccc1Cl`
24.2

What value of inhibition has been reported for the following compound? `CN([C@@H]1CCc2c(CC(=O)O)c3cc(S(C)(=O)=O)ccc3n2C1)S(=O)(=O)c1ccc(F)cc1`
-10

If you can, please state the reported inhibition value of `CC(C)C[C@@H](C(=O)N[C@@H](Cc1ccc(OCc2ccccc2)cc1)C(=O)NC(C)(C)C)N(C)Cc1ccc(C(C)(C)C)cc1` .
14.7

Which inhibition value is on record for `Cc1cc(C(=O)N2Cc3cnn(C)c3Nc3ccccc32)ccc1CNC(=O)N1CCC[C@H]1C(=S)N1CCCN(C)CC1` ?
-7

----------
Property: inhibition; scope: individual compounds
Target: G/T mismatch-specific thymine DNA glycosylase (Homo sapiens) (UniProt Q13569);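 further: human TDG cleavage of quenched duplex DNA oligonucleotides coupled to APE1, strand release read as fluorescence at 594 nm, inhibition of TDG activity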
Sequence (Q13569 whole entry): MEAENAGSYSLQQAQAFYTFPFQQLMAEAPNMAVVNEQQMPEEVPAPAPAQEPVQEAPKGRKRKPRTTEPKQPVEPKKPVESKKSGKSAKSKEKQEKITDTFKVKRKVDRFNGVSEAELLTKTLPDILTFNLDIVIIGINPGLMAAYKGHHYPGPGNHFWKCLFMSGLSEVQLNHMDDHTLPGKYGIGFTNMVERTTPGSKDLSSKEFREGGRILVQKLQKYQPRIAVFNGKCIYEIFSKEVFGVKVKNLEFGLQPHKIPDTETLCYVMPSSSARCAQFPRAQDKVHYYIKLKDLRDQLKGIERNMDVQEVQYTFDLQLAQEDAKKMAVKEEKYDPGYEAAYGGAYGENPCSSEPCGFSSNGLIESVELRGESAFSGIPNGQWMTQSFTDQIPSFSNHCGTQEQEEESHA
Settings: Compound Concentration 1.0 uM, Hit No
Report the value in % with no unit label.

Worked examples, 4 compounds total:
{"columns": ["compound", "inhibition [%]"],
 "data": [
  ["O[C@]1(C(F)(F)F)CCCC[C@H]1Nc1ccc(F)cc1", 46.6],
  ["O=C(c1ccc(F)cc1)N1CC(COc2ccc(Br)cc2)(C(=O)O)C1", 52.8],
  ["Cc1cc(Nc2nccc(C)n2)cc(-c2cnc([C@@]3(O)CC[C@H](C(=O)O)C(C)(C)C3)s2)c1", 40.8],
  ["O=C(NCCCC1CCCCC1)c1ccc(CNC(=O)c2cnn(-c3ccccc3)c2C(F)(F)F)cc1", 42.2]
]}

Okay, now this compound:
Quick check: inhibition of `CCOC(=O)c1cc2cc(-c3cc(C(=O)NCc4ccc(C(=O)O)cc4)nn3C)ccc2[nH]1` ?
41.7

----------
Biological target: Adenine DNA glycosylase (Homo sapiens) (UniProt Q9UIF7);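 further: human MUTYH activity read as 594 nm fluorescence from cleavage and release of a quenched DNA duplex, coupled with APE1 for strand incision, lower signal meaning inhibition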
Sequence (whole entry): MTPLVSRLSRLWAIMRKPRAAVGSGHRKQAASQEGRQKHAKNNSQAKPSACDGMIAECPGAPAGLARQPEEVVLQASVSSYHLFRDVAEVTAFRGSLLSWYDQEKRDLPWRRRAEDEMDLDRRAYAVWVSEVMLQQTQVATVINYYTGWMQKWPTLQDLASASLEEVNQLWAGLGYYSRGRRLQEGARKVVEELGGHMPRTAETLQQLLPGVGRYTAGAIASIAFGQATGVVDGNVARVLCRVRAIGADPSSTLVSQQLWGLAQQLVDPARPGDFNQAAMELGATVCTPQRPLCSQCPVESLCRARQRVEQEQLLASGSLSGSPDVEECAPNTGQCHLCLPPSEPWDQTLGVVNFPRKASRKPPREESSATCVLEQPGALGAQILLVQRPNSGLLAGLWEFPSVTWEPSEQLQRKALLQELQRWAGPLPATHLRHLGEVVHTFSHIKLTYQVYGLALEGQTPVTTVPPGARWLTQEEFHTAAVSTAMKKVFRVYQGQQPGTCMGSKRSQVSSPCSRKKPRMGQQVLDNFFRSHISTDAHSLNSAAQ
Conditions: Compound Concentration 10.0 uM, Hit No
# inhibition annotations

Some solved cases for reference:
{"columns": ["given smiles", "observed property", "reported measurement"],
 "data": [
  ["CCCc1nc2c(C)cc(-c3nc4ccccc4n3C)cc2n1Cc1ccc(-c2ccccc2C(=O)O)cc1", "inhibition", "24.6%"],
  ["Oc1ccc2c3c1O[C@H]1c4[nH]c5c(c4C[C@@]4(O)[C@@H](C2)N(CC2CC2)CC[C@]314)C[C@@]1(O)[C@H]2Cc3ccc(O)c4c3[C@@]1(CCN2CC1CC1)[C@H]5O4", "inhibition", "-2.67%"],
  ["COc1cc(F)ccc1-c1ncnc(Nc2cccc(C[S@](C)(=N)=O)c2)n1", "inhibition", "-2.6%"],
  ["CN1CCN(C(=O)c2ccc3cc2OCCOCCNc2ccn4ncc-3c4n2)CC1", "inhibition", "-5.82%"],
  ["Clc1ccccc1C(c1ccccc1)(c1ccccc1)n1cccn1", "inhibition", "23.9%"]
]}

Item `NS(=O)(=O)c1c(Cl)ccc(NC(=O)Nc2cccc(Cl)c2Cl)c1O` has what recorded inhibition?
10.9%

Please report the recorded inhibition for `CC(C)C(=O)Nc1n[nH]c2cc(-c3cccc(NS(=O)(=O)C4CC4)c3)ccc12` .
2.74%

Endpoint output: inhibition of `COc1cc(NC(=O)CCN2CCC(OC(=O)Nc3ccccc3-c3ccccc3)CC2)c(Cl)cc1CNC[C@H](O)c1ccc(O)c2[nH]c(=O)ccc12` . Value?
11.4%

----------
Biological target: Uracil-DNA glycosylase (Homo sapiens) (UniProt P13051);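 further: UNG excision on a quenched double-stranded DNA oligo probe, with APE1 added for strand incision and turnover, read as fluorescence at 594 nm as strands separate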
Sequence (P13051 whole entry): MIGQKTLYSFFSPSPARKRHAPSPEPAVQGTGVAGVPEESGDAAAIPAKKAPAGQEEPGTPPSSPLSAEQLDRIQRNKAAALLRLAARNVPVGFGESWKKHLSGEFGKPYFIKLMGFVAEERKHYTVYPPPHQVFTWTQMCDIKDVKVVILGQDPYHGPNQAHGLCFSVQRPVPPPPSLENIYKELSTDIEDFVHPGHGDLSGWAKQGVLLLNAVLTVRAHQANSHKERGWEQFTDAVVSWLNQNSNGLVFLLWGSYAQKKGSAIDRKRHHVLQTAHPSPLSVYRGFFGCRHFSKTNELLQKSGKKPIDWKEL
Settings: Compound Concentration 10.0 uM, Hit No
observed property: inhibition (%)
Number only, in %; omit the unit.

Would you please look over these solved cases?
{"columns": ["given smiles", "inhibition (%)"],
 "data": [
  ["Cc1c(N2CCCC2)nc2ccc(Br)cc2c1C(=O)NC[C@H](CCC(=O)O)c1ccccc1Cl", 5.08],
  ["CCCCCCCCCCCCC/C=C/[C@@H](O)[C@@H](N)COP(=O)(O)O", -6.96],
  ["N#Cc1ccc(O[C@@H]2c3ccccc3C[C@H]2N2CCC[C@@H](N)C2)c(Cl)c1", -1.13],
  ["COc1cc(Nc2ccc([N+](=O)[O-])cc2C(=O)O)cc2ccccc12", 10.9],
  ["Cc1nc(C(=O)N2CCC[C@H]2Cc2nnc(-c3ccccc3)o2)c(-c2ccccc2F)s1", -9.58]
]}

Could you share which inhibition value was measured for `CCO[C@@H](Cc1ccc(OCCc2ccc(OS(C)(=O)=O)cc2)cc1)C(=O)O` ?
1.73

State the recorded inhibition for this entry: `CC[C@@H](Nc1c(C#N)c(-c2ccc(-c3cccc(C)c3F)cc2)nc2cnccc12)C(=O)O`
2.5

Field request: inhibition | item: `Cc1cnc(CNCC2(F)CCN(C(=O)c3ccc(F)c(Cl)c3)CC2)nc1`
-8.07

So what does the record say about inhibition for `Cc1cc(-n2nc(Cc3cc(F)cc(C(F)(F)F)c3)nc2C)ccc1C(N)=O` ?
2.38
